- system: human Gal-3 (hGal-3) (Homo sapiens (Human), UniProt P17931)
- Sequence (P17931 whole entry): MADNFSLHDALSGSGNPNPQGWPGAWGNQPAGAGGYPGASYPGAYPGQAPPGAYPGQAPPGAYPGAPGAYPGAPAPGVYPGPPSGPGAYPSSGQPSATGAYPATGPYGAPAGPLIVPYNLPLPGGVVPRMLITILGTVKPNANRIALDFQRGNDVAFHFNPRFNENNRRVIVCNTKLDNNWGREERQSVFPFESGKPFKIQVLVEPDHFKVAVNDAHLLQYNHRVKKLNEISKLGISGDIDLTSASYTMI
pIC50: −log10 of the molar value.
assay metric: pIC50

Use the examples below as a reference point.
molecule	pIC50
COc1cc(-c2cn([C@H]3[C@@H](O)[C@@H](CO)O[C@@H](C(=O)N(c4cc(C)cc(Br)c4)[C@H]4CCC[C@@H]4O)[C@@H]3OC)nn2)cc(F)c1F	7.38
CO[C@@H]1[C@@H](n2cc(-c3ccc(Br)c(F)c3F)nn2)[C@@H](O)[C@@H](CO)O[C@H]1C(=O)N(c1cc(Br)cc(C#N)c1)[C@H]1CC[C@@H]1O	7.59
CO[C@@H]1[C@@H](n2cc(-c3cc(F)c(F)c(F)c3)nn2)[C@@H](O)[C@@H](CO)O[C@H]1C(=O)N(c1cc(C)cc(Cl)c1)[C@H]1CC[C@@H]1O	6.93
COc1cc(C#N)cc(N(C(=O)[C@@H]2O[C@H](CO)[C@H](O)[C@H](n3cc(-c4cc(F)cc(Br)c4)nn3)[C@H]2OC)[C@H]2CC[C@@H]2O)c1	6.65
CO[C@@H]1[C@@H](n2cc(-c3ccc(Br)c(F)c3F)nn2)[C@@H](O)[C@@H](CO)O[C@H]1C(=O)N(c1cc(Cl)cc(C#N)c1)[C@@H]1CCC[C@H]1O	7.04

[P] O=C([C@@H]1O[C@H](CO)[C@H](O)[C@H](n2cc(-c3cc(F)c(F)c(F)c3)nn2)[C@H]1O)N(c1cc(Cl)cc(Cl)c1)[C@H]1CC[C@@H]1O
[Q] CO[C@@H]1[C@@H](n2cc(-c3ccc(C)c(F)c3F)nn2)[C@@H](O)[C@@H](CO)O[C@H]1C(=O)N(c1cc(Cl)cc(Cl)c1)[C@H]1CC[C@@H]1O
[R] CO[C@@H]1[C@@H](n2cc(-c3cc(F)c(F)c(F)c3)nn2)[C@@H](O)[C@@H](CO)O[C@H]1C(=O)N(c1cc(Br)cc(C#N)c1)[C@H]1CCC[C@@H]1O
[S] CO[C@@H]1[C@@H](n2cc(-c3cc(F)cc(F)c3)nn2)[C@@H](O)[C@@H](CO)O[C@H]1C(=O)N(c1cc(Br)cc(C#N)c1)[C@H]1CCC[C@@H]1O
[T] CO[C@@H]1[C@@H](n2cc(-c3cc(F)c(F)c(F)c3)nn2)[C@@H](O)[C@@H](CO)O[C@H]1C(=O)N(c1cc(Br)cc(Br)c1)[C@@H]1CC[C@H]1O [Example 2.1.11R]
Asked: Order the 5 molecules from highest to lowest pIC50. Provide the ranking by listing each label in its place in the requested order.
Given back: R, Q, P, S, T
(R: 7.64, Q: 7.37, P: 7.17, S: 6.84, T: 6.48)
